Where do these numbers come from? They come from patent US8906910B2.

- System: phosphorylation of AKT (Ser473) in MDA-MB-468 tumor cells
- METHOD_SUMMARY: Inhibition of phosphorylation of AKT in PTEN deficient tumor cell line MDA-MB-468 (MSD Ser473-AKT)
- Assay type: cell-based
- CONDITIONS: Homo sapiens, 0.5 h; MDA-MB-468 breast cancer cells, 30 minutes compound treatment, Ser473-pAKT normalized to total AKT
Kindly state IC50 for each of the entries shown.
Please state the figure in nM; there is no need to write the unit.

Give IC50 for this entry on phosphorylation of AKT (Ser473) in MDA-MB-468 tumor cells: Cc1nc2c(C(=O)O)cc(N3CCOCC3)nc2n1Cc1cccc2ccccc12 [Example 6]
75.3

Fill in: IC50 on phosphorylation of AKT (Ser473) in MDA-MB-468 tumor cells, entry Cc1nc2ccc(N3CCOCC3)nc2n1Cc1cccc2ccccc12 [Example 7]
126

Write down the reported IC50 (system: phosphorylation of AKT (Ser473) in MDA-MB-468 tumor cells) of Oc1cc(N2CCOCC2)nc2c1ncn2Cc1cccc2ccccc12 [Example 2]
578

// fetch IC50; item: Cc1c(Cn2cnc3c(O)cc(N4CCOCC4)nc32)cccc1C(F)(F)F [Example 1] ; system: phosphorylation of AKT (Ser473) in MDA-MB-468 tumor cells
477

Enter IC50 (test system phosphorylation of AKT (Ser473) in MDA-MB-468 tumor cells) for Cc1c(Cl)cccc1Cn1c(C)nc2c(C(=O)O)cc(N3CCOCC3)nc21 [Example 5]
15.9

====

- System: MDA-MB-468 cells
- METHOD_SUMMARY: Cell growth inhibition in PTEN-deficient cell line MDA-MB-468 (anchorage independent, Alamar Blue)
- Assay type: cell-based
- CONDITIONS: Homo sapiens, 144 h, MDA-MB-468, anchorage independent conditions, 6 days incubation, read-out: Prolif EC50 (nM) MDA-MB-468
MEASUREMENT_LABEL: EC50 (nM)
Please give a number only; it is taken to be in nM.

State, in one line, measured EC50 of Cc1c(Cn2c(C)nc3c(C(=O)O)cc(N4CCOCC4)nc32)cccc1C(F)(F)F
41

Supply EC50 value. Item: Cc1c(Cl)cccc1Cn1c(C)nc2c(C(=O)O)cc(N3CCOCC3)nc21
18.1

Give the reported value of EC50 for this record: Cc1nc2ccc(N3CCOCC3)nc2n1Cc1cccc(Cl)c1Cl
1500

Return value of EC50 for input Cc1nc2c(C(=O)O)cc(N3CCOCC3)nc2n1Cc1cccc2ccccc12 , no commentary.
66.5

Could you please provide reported EC50 for Cc1nc2c(C(=O)O)cc(N3CCOCC3)nc2n1Cc1cccc(Cl)c1Cl ? Thanks!
153

====

Kindly state IC50 for each of the entries shown.
- TEST_SYSTEM: PI3Kβ (Homo sapiens)
- Construct: made in house
- Sequence (P42338 whole entry): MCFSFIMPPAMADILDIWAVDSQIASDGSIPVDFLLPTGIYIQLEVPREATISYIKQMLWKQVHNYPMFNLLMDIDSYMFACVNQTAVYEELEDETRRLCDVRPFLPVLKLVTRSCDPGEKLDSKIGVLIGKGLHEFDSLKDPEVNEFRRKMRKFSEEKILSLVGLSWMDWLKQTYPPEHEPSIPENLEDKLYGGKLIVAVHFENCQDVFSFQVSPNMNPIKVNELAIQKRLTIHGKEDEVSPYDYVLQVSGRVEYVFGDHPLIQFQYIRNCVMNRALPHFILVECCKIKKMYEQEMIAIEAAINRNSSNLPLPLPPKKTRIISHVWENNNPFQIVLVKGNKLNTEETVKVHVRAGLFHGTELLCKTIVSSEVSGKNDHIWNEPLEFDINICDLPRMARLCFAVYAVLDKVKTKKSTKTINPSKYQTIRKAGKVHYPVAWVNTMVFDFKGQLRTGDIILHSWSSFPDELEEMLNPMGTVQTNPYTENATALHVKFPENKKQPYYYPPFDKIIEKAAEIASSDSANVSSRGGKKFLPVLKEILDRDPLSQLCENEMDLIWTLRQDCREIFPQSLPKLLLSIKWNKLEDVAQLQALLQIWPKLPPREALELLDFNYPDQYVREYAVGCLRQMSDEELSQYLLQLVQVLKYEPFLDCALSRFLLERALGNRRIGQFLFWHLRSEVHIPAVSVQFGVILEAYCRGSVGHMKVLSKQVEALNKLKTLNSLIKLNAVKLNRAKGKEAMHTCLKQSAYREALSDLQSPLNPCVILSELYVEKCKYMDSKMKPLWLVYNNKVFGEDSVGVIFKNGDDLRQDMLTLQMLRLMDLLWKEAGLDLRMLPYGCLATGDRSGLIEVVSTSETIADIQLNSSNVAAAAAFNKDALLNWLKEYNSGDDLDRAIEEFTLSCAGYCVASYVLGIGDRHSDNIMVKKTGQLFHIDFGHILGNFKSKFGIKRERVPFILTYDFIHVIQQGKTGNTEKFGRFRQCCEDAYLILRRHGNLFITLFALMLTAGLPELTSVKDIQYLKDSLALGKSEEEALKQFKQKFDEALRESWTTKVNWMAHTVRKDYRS
- Sequence (P27986 whole entry partner): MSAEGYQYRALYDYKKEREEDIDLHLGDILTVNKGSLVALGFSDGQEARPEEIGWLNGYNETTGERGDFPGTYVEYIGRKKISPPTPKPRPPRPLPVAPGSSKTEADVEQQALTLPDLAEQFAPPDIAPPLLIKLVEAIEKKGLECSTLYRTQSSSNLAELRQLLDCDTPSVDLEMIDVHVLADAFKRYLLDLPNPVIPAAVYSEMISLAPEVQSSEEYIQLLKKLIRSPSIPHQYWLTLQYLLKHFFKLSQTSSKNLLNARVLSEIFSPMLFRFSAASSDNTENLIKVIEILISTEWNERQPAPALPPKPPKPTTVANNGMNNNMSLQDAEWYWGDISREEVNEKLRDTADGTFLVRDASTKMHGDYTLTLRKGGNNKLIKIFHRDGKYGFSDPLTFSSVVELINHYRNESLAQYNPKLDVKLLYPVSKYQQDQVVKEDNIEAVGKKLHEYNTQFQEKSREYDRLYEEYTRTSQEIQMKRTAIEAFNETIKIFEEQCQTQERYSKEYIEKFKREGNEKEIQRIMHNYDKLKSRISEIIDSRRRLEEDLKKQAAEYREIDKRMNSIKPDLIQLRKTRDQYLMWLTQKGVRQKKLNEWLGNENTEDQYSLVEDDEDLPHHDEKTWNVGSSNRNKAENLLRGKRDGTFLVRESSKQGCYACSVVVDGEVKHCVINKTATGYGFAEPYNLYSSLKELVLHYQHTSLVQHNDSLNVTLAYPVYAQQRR
- METHOD_SUMMARY: HTRF in vitro profiling assay for PI3K inhibition (beta isoform)
- Assay type: biochemical
- CONDITIONS: 200 pM enzyme, 100 uM ATP, 10 uM PIP2, 150 mM NaCl, corrected pIC50, single run or average of two or more runs, read-out: PI3K b pIC50 (converted)
- Description: The PI3-Kinase profiling assays were developed to measure the compound-dependent inhibition of the alpha, beta, delta, and gamma isoforms of PI3Kin an in vitro catalytic assay. […] Briefly, this procedure utilizes a pre-formed HTRF (Homogeneous Time-Resolved Fluorescence energy transfer) complex between four binding partners: 1) biotinylated PIP3, 2) GST tagged pleckstrin homology (PH) domain, 3) Europium labeled anti-GST monoclonal antibody, and 4) Streptavidin-Allophycocyanin (APC). […]
Give just the numeric value; nM need not be written.

Give the reported value of IC50 for this record: Cc1c(Cn2cnc3c(O)cc(N4CCOCC4)nc32)cccc1C(F)(F)F
1.58

For the compound Cc1nc2ccc(N3CCOCC3)nc2n1Cc1cccc(Cl)c1Cl , report IC50.
39.8

# return recorded IC50 for entry Cc1nc2c(C(=O)O)cc(N3CCOCC3)nc2n1Cc1cccc2ccccc12
1.58

Note down IC50 recorded for Oc1cc(N2CCOCC2)nc2c1ncn2Cc1cccc2ccccc12
3.16

// Input: Cc1nc2ccc(N3CCOCC3)nc2n1Cc1cccc2ccccc12 . Output its IC50 only.
6.31
